# assayNotes: In vivo pharmacokinetic test, drug concentration in blood plasma by LC-MS/MS
# Parameters: species or system SD rats
# assayContext: male, SD, rat, plasma, iv, 1 mg/kg, SD rats, intravenous 1 mg/kg, 8 h, animal 101M
measurementType: concentration at 8 h (ng/mL)
Give bare numbers, in ng/mL.

Can you look up the measured concentration at 8 h of `CCOc1cccc(Nc2nn(C)c3c2Cc2cc(OCC)c(OCC(N)=O)cc2-3)c1` for me?
8.6

---

# assayNotes: In vivo pharmacokinetic test, drug concentration in blood plasma by LC-MS/MS
# Parameters: species or system SD rats
# assayContext: male, SD, rat, plasma, po, 10 mg/kg, male SD rats, single oral 10 mg/kg, animal 203M; read-out: AUCINF—pred
measurementType: AUC(0-inf) (ng·h/mL)
Answers are plain numbers, in ng·h/mL.

Reported AUC(0-inf) for `CCOc1cccc(Nc2nn(C)c3c2Cc2cc(OCC)c(OCC(N)=O)cc2-3)c1` : what is it?
9080
